System: TK-10
PROCEDURE DETAILS: NCI tumour cell line growth inhibition, 48 h
The source made the active and inactive calls. Cut-off read from the data, not from the text of the source: active = GI50 up to about 1.1 µM and inactive = higher.
As shown below, each of these compounds has a reported GI50 value.

[in] Name the recorded GI50 of the item CC1(O)CC23CC1CCC2(C)C12CCCC(C)(C(=O)O1)C2CC3O (stereo not given) in your answer.
[out] > 100 µM (inactive)

[in] Name the recorded GI50 of the item "O=C(c1ccc(Cl)cc1)c1ccc(OCCCOc2ccc(C(=O)c3ccc(Cl)cc3)cc2)cc1" in your answer.
[out] > 100 µM (inactive)

[in] Name the recorded GI50 of the item Cn1c2ccccc2c(=O)c2cccc(C(=O)NC(CCC(N)=O)C(=O)O)c21 (stereo not given) in your answer.
[out] > 100 µM (inactive)

[in] Name the recorded GI50 of the item "COc1cc(Nc2cnc3cc(N)ccc3n2)cc(OC)c1OC" in your answer.
[out] > 100 µM (inactive)

[in] Name the recorded GI50 of the item CCOC(=O)C(/N=N\c1ccc(S(N)(=O)=O)cc1)C(C)=O (stereo not given) in your answer.
[out] > 100 µM (inactive)

[in] Name the recorded GI50 of the item "COc1cc(/C=C2\N=C(c3ccccc3)N(c3ccc(C(=O)c4ccccc4)cc3N3C(=O)/C(=C/c4cc(OC)c(OC)c(OC)c4)N=C3c3ccccc3)C2=O)cc(OC)c1OC" in your answer.
[out] 16.8 µM (inactive)

[in] Name the recorded GI50 of the item "O=[N+]([O-])c1cc(Cl)cnc1Br" in your answer.
[out] 3.22 µM (inactive)
